Reported log10(koff) values for a set of binders
# Assayed system: T1, human CD33 extracellular domain (human, UniProt P20138 18-259)
# T1 construct: soluble monomeric ECD; also called human CD33 ECD; hCD33
# Test description: BLI Octet, IgG loaded;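 also: IgGs captured on AHC biosensors, exposed to 100 nM antigen for 3 min association then 3 min dissociation in buffer, kinetics fitted with a 1:1 binding model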
Observable: log10(koff) (log10 of the value in s⁻¹)

Binder: ADI-11835 IgG (antibody, V domains shown, IgG; also called Ab10; I35) VH: QLQLQESGPGLVKPSETLSLTCTVSGGSISSTDYYWGWIRQPPGKGLEWIGSIGYSGTYYNPSLKSRVTISVDTSKNQFSLKLSSVTAADTAVYYCARETAHDVHGMDVWGQGTTVTVSS VL: EIVLTQSPATLSLSPGERATLSCRASHSVYSYLAWYQQKPGQAPRLLIYDASNRATGIPARFSGSGSGTDFTLTISSLEPEDFAVYYCQQYDNLPTFGGGTKVEIK
Recorded number: -3.63
--
Binder: ADI-11826 IgG (antibody, V domains shown, IgG; also called Ab26) VH: EVQLVESGGGLVQPGGSLRLSCAASGFTFPGYWMSWVRQAPGKGLEWVANINQDGSEVYYVDSVKGRFTISRDNAKNSLYLQMNSLRAEDTAVYYCAREANYYGNVGDDYWGQGTLVTVSS VL: DIQMTQSPSSLSASVGDRVTITCRASQSIYNYLNWYQQKPGKAPKLLIYAASSTQSGVPSRFSGSGSGTDFTLTISSLQPEDFATYYCQQAFHVPITFGGGTKVEIK
Recorded number: -3.61
--
Binder: ADI-11776 IgG (antibody, V domains shown, IgG; also called Ab3; H76) VH: EVQLLESGGGLVQPGGSLRLSCAASGFTFSKYTMSWVRQAPGKGLEWVSAIVGSGESTYFADSVKGRFTISRDNSKNTLYLQMNSLRAEDTAVYYCAREGGPYYDSSGYFVYYGMDVWGQGTTVTVSS VL: DIQMTQSPSTLSASVGDRVTITCRASQSISSWLAWYQQKPGKAPKLLIYKASSLESGVPSRFSGSGSGTEFTLTISSLQPDDFATYYCQQYDDLPTFGGGTKVEIK
Recorded number: -3.70
--
Binder: ADI-11830 IgG (antibody, V domains shown, IgG; also called Ab9) VH: EVQLVESGGGLVQPGGSLRLSCAASGFTFSSYWMSWVRQAPGKGLEWVANINTDGSEVYYVDSVKGRFTISRDNAKNSLYLQMNSLRAEDTAVYYCARDVGPGIAYQGHFDYWGQGTLVTVSS VL: DIQMTQSPSSLSASVGDRVTITCRASQVIYSYLNWYQQKPGKAPKLLIYAASSLKSGVPSRFSGSGSGTDFTLTISSLQPEDFATYYCQQVYDTPLTFGGGTKVEIK
Recorded number: -3.03
--
Binder: ADI-11815 IgG (antibody, V domains shown, IgG; also called Ab7) VH: QVQLVQSGAEVKKPGASVKVSCKASGYTFGTYYMHWVRQAPGQGLEWMGIINPSRGSTVYAQKFQGRVTMTRDTSTSTVYMELSSLRSEDTAVYYCARGAGYDDEDMDVWGKGTTVTVSS VL: DIQMTQSPSSVSASVGDRVTITCRASQGIDSWLAWYQQKPGKAPKLLIYAASSLQSGVPSRFSGSGSGTDFTLTISSLQPEDFATYYCQQAHSYPLTFGGGTKVEIK
Recorded number: -3.64
--
Binder: ADI-10177 IgG (antibody, V domains shown, IgG; also called Ab2) VH: EVQLVESGGGLVQPGGSLRLSCAASGFTFSSYWMSWVRQAPGKGLEWVANIKQDGSEKYYVDSVKGRFTISRDNAKNSLYLQMNSLRAEDTAVYYCARPLNAGELDVWGQGTMVTVSS VL: DIQMTQSPSTLSASVGDRVTITCRASQSISSWLAWYQQKPGKAPKLLIYEASSLESGVPSRFSGSGSGTEFTLTISSLQPDDFATYYCQQLESYPLTFGGGTKVEIK
Recorded number: -2.67
--
Binder: Lintuzumab (antibody, V domains shown, IgG; also called lintuzumab IgG) VH: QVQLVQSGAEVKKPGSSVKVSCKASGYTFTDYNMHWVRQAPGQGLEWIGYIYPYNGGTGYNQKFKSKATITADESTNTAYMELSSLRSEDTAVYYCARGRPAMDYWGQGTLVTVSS VL: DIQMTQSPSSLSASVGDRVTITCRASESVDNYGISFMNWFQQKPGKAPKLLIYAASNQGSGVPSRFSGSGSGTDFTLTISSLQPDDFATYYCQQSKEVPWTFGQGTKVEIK
Recorded number: -3.02
--
Binder: ADI-10161 IgG (antibody, V domains shown, IgG; also called Ab16) VH: EVQLVESGGGLVQPGGSLRLSCAASGFTFSSYWMSWVRQAPGKGLEWVANINQDGSEKYYVDSVKGRFTISRDNAKNSLYLQMNSLRAEDTAVYYCAREGGDSWYHAFDIWGQGTMVTVSS VL: DIQMTQSPSSVSASVGDRVTITCRASQGISSWLAWYQQKPGKAPKLLIYAASNLQSGVPSRFSGSGSGTDFTLTISSLQPEDFATYYCQQKLSLPLTFGGGTKVEIK
Recorded number: -2.66
--
Binder: ADI-11807 IgG (antibody, V domains shown, IgG; also called Ab5; I07) VH: EVQLVESGGGLVQPGGSLRLSCAASGFTFGSYWMSWVRQAPGKGLEWVATIKQDGSEKSYVDSVKGRFTISRDNAKNSLYLQMNSLRAEDTAVYYCARPLNAGELDVWGQGTMVTVSS VL: DIQMTQSPSTLSASVGDRVTITCRASQSISSWLAWYQQKPGKAPKLLIYEASSLESGVPSRFSGSGSGTEFTLTISSLQPDDFATYYCQQSQSYPPITFGGGTKVEIK
Recorded number: -3.70
--
Binder: ADI-11809 IgG (antibody, V domains shown, IgG; also called Ab6) VH: EVQLVESGGGLVQPGGSLRLSCAASGFTFPSYWMSWVRQAPGKGLEWVATIKRDGSEKGYVDSVKGRFTISRDNAKNSLYLQMNSLRAEDTAVYYCARPLNAGELDVWGQGTMVTVSS VL: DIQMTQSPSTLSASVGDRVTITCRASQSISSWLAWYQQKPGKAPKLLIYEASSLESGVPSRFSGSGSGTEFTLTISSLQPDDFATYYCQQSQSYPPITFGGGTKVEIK
Recorded number: -3.70

Values compiled from patent US20220380459A1.
